molecular target: AOC3 (Homo sapiens, UniProt Q16853); construct: expressed in transfected cells; host or cells: CHO cells; assay: AOC3 biochemical assay (MAO-Glo); conditions: Table 1; read-out: AOC3 IC50
Sequence (Q16853 whole entry): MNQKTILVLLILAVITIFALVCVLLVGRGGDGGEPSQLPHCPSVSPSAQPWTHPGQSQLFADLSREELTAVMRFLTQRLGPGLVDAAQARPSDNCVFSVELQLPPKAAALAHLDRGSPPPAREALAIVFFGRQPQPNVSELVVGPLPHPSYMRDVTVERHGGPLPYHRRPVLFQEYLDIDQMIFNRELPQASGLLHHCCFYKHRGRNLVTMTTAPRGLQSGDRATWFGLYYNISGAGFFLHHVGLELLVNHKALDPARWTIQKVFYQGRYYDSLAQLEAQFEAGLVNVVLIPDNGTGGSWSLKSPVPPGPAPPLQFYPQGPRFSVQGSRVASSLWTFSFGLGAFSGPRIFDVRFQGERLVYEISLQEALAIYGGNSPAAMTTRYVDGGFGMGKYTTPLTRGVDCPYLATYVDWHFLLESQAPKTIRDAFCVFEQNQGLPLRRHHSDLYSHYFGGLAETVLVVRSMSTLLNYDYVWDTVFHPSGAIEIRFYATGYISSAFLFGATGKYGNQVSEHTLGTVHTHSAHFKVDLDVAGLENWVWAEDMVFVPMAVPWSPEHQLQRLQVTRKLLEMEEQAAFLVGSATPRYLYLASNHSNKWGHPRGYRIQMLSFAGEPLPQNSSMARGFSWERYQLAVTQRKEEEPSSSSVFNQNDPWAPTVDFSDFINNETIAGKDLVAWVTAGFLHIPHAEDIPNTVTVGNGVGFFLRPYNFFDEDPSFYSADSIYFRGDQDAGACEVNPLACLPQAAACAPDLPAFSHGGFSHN
pIC50: −log10 of the molar value.
ASSAY METRIC: pIC50

INSERT INTO measurements (compound, study_target, reported_value) VALUES
  ('CN(c1ncc(-c2cccc(COC(=O)NC(=N)N)n2)cn1)C1CCOCC1', 'AOC3 (Homo sapiens, UniProt Q16853)', 8.70),
  ('N=C(N)NC(=O)OCc1cccc(-c2cnc(O[C@H]3CCOC3)nc2)n1', 'AOC3 (Homo sapiens, UniProt Q16853)', 8.10),
  ('CN(C)c1ncc(-c2cccc(COC(=O)NC(=N)N)n2)cn1', 'AOC3 (Homo sapiens, UniProt Q16853)', 8.30),
  ('N=C(N)NC(=O)OCc1cccc(-c2ccc(OCc3ccon3)nc2)n1', 'AOC3 (Homo sapiens, UniProt Q16853)', 8.70),
  ('CC(Oc1ncc(-c2cccc(COC(=O)NC(=N)N)n2)cn1)c1ccon1 (stereo not drawn)', 'AOC3 (Homo sapiens, UniProt Q16853)', 7.82),
  ('N=C(N)NC(=O)OCc1cccc(-c2cnc(C3CC3)nc2)n1', 'AOC3 (Homo sapiens, UniProt Q16853)', 8.10),
  ('CC(F)(F)COc1ncc(-c2cccc(COC(=O)NC(=N)N)n2)cn1', 'AOC3 (Homo sapiens, UniProt Q16853)', 8.30),
  ('N=C(N)NC(=O)OCc1cccc(-c2cnc(OCC3CCN(C(=O)C4CC4)CC3)nc2)n1', 'AOC3 (Homo sapiens, UniProt Q16853)', 8.52),
  ('CC(F)(F)CNc1ncc(-c2cccc(COC(=O)NC(=N)N)n2)cn1', 'AOC3 (Homo sapiens, UniProt Q16853)', 8.05);
